Recorded measurements of Activity, one per entry
- Test system: A549
- TEST METHOD NOTES: Cell cycle arrest in human A549 cells assessed as accumulation at G0/G1 phase at 4 uM after 24 hrs by propidium iodide staining based flow cytometry (reference value: 69.5%)
- Format: functional
READOUT: Activity

>  <COMPOUND>
OC1(C(F)(F)F)CS/C(=N\c2ccc(Cl)c(C(F)(F)F)c2)N1Cc1ccco1 (stereo not given)

>  <READOUT>
Activity

>  <RESULT>
79.77%

$$$$
>  <COMPOUND>
OC1(C(F)(F)F)CS/C(=N\c2ccc(Cl)c(C(F)(F)F)c2)N1CCN1CCOCC1 (stereo not given)

>  <READOUT>
Activity

>  <RESULT>
81.78%

$$$$
>  <COMPOUND>
OC1(C(F)(F)F)CS/C(=N\c2cccc(C(F)(F)F)c2)N1c1cccc(C(F)(F)F)c1 (stereo not given)

>  <READOUT>
Activity

>  <RESULT>
86.61%

$$$$
>  <COMPOUND>
OC1(C(F)(F)F)CS/C(=N\c2ccc(Cl)c(C(F)(F)F)c2)N1Cc1cccs1 (stereo not given)

>  <READOUT>
Activity

>  <RESULT>
75.3%

$$$$
>  <COMPOUND>
CC(C)(C)N1/C(=N/c2ccc(Cl)c(C(F)(F)F)c2)SCC1(O)C(F)(F)F (stereo not given)

>  <READOUT>
Activity

>  <RESULT>
82.31%

$$$$

====

A collection of molecules and their measured IC50
- Tested on: HeLa
- TEST METHOD NOTES: Cytotoxicity against human HeLa cells assessed as reduction in cell viability after 24 hrs by MTT assay
- Type: functional, cell-based

>  <MOLECULE>
OC1(C(F)(F)F)CS/C(=N\c2ccccc2)N1c1ccccc1 (stereo not drawn)

>  <UNIT OF MEASUREMENT>
µM

>  <IC50>
29.4

$$$$
>  <MOLECULE>
CCCN1/C(=N/c2ccccc2)SCC1(O)C(F)(F)F (stereo not drawn)

>  <UNIT OF MEASUREMENT>
µM

>  <IC50>
24.4

$$$$
>  <MOLECULE>
OC1(C(F)(F)F)CS/C(=N\c2ccccc2)N1Cc1ccco1 (stereo not drawn)

>  <UNIT OF MEASUREMENT>
µM

>  <IC50>
24.8

$$$$

====

- Tested on: HeLa
- TEST METHOD NOTES: Cytotoxicity against human HeLa cells assessed as reduction in cell viability after 24 hrs by MTT assay
- Type: functional, cell-based
pIC50: −log10 of the molar value.
Think of 5 as a floor: if pIC50 stands on it or above, it is True; beneath it, False.

>  <MOLECULE>
OC1(C(F)(F)F)CS/C(=N\c2ccc(C(F)(F)F)cc2)N1CCc1ccccn1 (stereo not given)

>  <ASSIGNED CLASS>
False

$$$$
>  <MOLECULE>
OC1(C(F)(F)F)CS/C(=N\c2ccc(Cl)c(C(F)(F)F)c2)N1Cc1ccco1 (stereo not given)

>  <ASSIGNED CLASS>
True

$$$$
>  <MOLECULE>
OC1(C(F)(F)F)CS/C(=N\c2ccc(F)c(Cl)c2)N1c1ccccc1 (stereo not given)

>  <ASSIGNED CLASS>
False

$$$$
>  <MOLECULE>
COc1ccc(N2/C(=N/c3ccc(C(F)(F)F)cc3)SCC2(O)C(F)(F)F)cc1 (stereo not given)

>  <ASSIGNED CLASS>
False

$$$$
>  <MOLECULE>
OC1(C(F)(F)F)CS/C(=N\c2ccc(F)cc2)N1c1ccccc1 (stereo not given)

>  <ASSIGNED CLASS>
False

$$$$
>  <MOLECULE>
OC1(C(F)(F)F)CS/C(=N\c2ccc(Cl)c(C(F)(F)F)c2)N1CCc1ccccn1 (stereo not given)

>  <ASSIGNED CLASS>
True

$$$$
>  <MOLECULE>
OC1(C(F)(F)F)CS/C(=N\c2ccc(C(F)(F)F)cc2)N1Cc1ccco1 (stereo not given)

>  <ASSIGNED CLASS>
False

$$$$
>  <MOLECULE>
OC1(C(F)(F)F)CS/C(=N\c2ccccc2)N1C1CC1 (stereo not given)

>  <ASSIGNED CLASS>
False

$$$$
>  <MOLECULE>
OC1(C(F)(F)F)CS/C(=N\c2ccccc2)N1C1CCCCC1 (stereo not given)

>  <ASSIGNED CLASS>
False

$$$$
>  <MOLECULE>
CC(C)(C)N1/C(=N/c2ccc(Cl)c(C(F)(F)F)c2)SCC1(O)C(F)(F)F (stereo not given)

>  <ASSIGNED CLASS>
True

$$$$

Recorded values, source ChEMBL document CHEMBL3817727.
